Value source: paper PMC11544713

- Experiment: Acute intervention: nutrikinetics of plasma metabolites after ingestion of L. citriodora extract (untargeted HPLC-ESI-QTOF-MS)
- Condition Info: in vivo
Where a name gives a salt, the structure may show the parent alone.
Property: mean chromatographic area in plasma, T8
I only need the number, thanks.

Example cases with answers are listed next.
O=C(O)CCCCCCCCC(=O)O [sebacic acid isomer, sebacic acid]
0
O=C(O)C=Cc1ccc(OS(=O)(=O)O)c(O)c1 (single isomer, unassigned; isomer 2) [caffeic acid 4-sulfate isomer 2, caffeic acid 4-sulfate]
129
O=C(O)C=Cc1ccc(OS(=O)(=O)O)c(O)c1 (single isomer, unassigned; isomer 1) [caffeic acid 4-sulfate isomer 1, caffeic acid 4-sulfate]
67

Proceed to the following item.
Memo: COc1cc(CC(=O)O)ccc1OS(=O)(=O)O [homovanillic acid sulfate isomer 1, homovanillic acid sulfate] , reported mean chromatographic area in plasma, T8: 221
